This collection of values is drawn from paper PMC3856494.

# Assay Text: In vivo metabolism of [18F]17 and uptake of [18F]10
# Set-up: species or system CD1 mice
# Protocol Conditions: mouse, spleen, iv; after i.v. 100 to 200 kBq [18F]17, female CD1 mice; read-out: uptake, Spleen, 60 min p.i.
Readout Kind: tissue uptake at 1 h (%ID/g)
Record the value in %ID/g, omitting the unit from your answer.

Consider O=C(O)CCc1nc(-c2ccc([18F])cc2Br)no1 [[^18F]10] . Its measured tissue uptake at 1 h is 1.31

----------
melting point under 100 °C gets rule met, anything at or over 100 °C gets rule not met.

Request: Identify whether the compound `Cc1ccc(S(=O)(=O)OCCn2c3ccccc3c3cc(NC(=O)CCc4nc(-c5ccc(F)cc5Br)no4)ccc32)cc1` records melting point below 100 °C.
Result: rule not met

Request: Identify whether the compound `O=C(O)CCc1nc(-c2ccc(F)cc2Br)no1` records melting point below 100 °C.
Result: rule not met

Request: Identify whether the compound `COC(=O)CCc1nc(-c2ccc(F)cc2Br)no1` records melting point below 100 °C.
Result: rule met

Request: Identify whether the compound `COC(=O)CCc1nc(-c2ccc([N+](C)(C)C)cc2Br)no1.[I-]` records melting point below 100 °C.
Result: rule not met

Request: Identify whether the compound `CCn1c2ccccc2c2cc(NC(=O)CCc3nc(-c4ccc([N+](C)(C)C)cc4Br)no3)ccc21.[I-]` records melting point below 100 °C.
Result: rule not met
